Just for reference, patent US11643388B2 is where these values come from.

- tested_system: α2β1 (Homo sapiens, UniProt P05556+P17301)
- Sequence (P17301 30-1181): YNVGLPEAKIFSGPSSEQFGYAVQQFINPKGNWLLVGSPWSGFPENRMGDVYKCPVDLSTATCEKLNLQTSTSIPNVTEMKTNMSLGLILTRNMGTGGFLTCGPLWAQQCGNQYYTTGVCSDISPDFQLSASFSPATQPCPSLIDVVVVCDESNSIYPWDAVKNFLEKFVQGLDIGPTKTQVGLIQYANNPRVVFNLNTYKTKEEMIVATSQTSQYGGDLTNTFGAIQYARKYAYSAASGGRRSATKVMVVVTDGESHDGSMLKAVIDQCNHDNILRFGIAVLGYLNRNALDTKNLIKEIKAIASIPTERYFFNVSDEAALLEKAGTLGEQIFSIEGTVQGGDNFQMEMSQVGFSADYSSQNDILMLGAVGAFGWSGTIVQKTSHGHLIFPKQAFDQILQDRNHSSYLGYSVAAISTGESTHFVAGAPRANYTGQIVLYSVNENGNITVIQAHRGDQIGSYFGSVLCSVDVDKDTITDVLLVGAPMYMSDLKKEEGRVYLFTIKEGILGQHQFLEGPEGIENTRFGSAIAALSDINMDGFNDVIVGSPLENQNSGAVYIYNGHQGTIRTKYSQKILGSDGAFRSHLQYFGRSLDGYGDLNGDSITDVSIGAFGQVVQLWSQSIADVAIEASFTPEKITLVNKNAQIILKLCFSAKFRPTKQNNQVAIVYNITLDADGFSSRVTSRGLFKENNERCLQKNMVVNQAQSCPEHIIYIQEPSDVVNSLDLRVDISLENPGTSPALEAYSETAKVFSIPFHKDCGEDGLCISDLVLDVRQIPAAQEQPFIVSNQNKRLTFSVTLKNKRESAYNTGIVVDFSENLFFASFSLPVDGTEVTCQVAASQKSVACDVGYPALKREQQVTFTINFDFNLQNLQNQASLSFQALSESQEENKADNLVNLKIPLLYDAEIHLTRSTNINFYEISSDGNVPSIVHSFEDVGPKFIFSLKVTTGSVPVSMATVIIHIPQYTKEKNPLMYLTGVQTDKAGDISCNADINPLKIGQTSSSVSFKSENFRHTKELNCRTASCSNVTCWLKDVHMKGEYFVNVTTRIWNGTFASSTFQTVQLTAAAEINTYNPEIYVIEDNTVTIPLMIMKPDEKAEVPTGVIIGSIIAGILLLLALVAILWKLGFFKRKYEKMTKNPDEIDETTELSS
- Sequence (P05556 21-798): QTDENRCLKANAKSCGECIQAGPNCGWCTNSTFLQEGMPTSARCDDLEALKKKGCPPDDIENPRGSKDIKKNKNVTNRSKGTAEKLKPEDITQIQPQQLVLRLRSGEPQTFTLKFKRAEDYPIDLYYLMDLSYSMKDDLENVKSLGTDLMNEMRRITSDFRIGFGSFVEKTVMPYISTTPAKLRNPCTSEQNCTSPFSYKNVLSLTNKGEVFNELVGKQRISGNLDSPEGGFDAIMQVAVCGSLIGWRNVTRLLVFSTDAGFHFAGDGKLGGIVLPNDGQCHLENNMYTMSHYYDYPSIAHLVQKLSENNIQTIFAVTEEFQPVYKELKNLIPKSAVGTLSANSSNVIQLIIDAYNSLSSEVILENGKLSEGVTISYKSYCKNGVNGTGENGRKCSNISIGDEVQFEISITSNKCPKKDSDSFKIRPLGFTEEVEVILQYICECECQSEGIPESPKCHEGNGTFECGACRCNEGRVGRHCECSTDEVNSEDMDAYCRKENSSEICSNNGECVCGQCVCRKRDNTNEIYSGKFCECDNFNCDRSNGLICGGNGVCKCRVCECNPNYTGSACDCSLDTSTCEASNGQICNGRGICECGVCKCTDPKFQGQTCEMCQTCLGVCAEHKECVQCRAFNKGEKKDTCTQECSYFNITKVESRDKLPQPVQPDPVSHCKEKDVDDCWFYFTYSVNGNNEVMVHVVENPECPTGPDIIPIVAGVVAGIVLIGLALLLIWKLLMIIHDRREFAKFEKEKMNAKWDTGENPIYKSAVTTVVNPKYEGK
- test_name: α2β1 cell adhesion
- Format: cell-based
property_measured: IC50

Previously resolved entries follow.
O=C(Cc1cccc(Cl)c1)Nc1cc(Cl)c(C(=O)N[C@@H](CNC(=O)N[C@@H]2CCc3ccccc32)C(=O)O)c(Cl)c1 | < 500 nM
CC(=O)N1CCc2c(cc(Cl)c(C(=O)N[C@@H](CNC(=O)N[C@@H]3CCc4ccccc43)C(=O)O)c2Cl)C1 | 1000 to 5000 nM
O=C(NC[C@H](NC(=O)c1c(Cl)cc(OCCc2ccccc2)cc1Cl)C(=O)O)N[C@@H]1CCc2ccccc21 | 1000 to 5000 nM
C[C@H](NC(=O)c1cc(Cl)c(C(=O)N[C@@H](CNC(=O)N[C@@H]2CCc3ccccc32)C(=O)O)c(Cl)c1)c1ccccc1 | 1000 to 5000 nM
O=C(NC[C@H](NC(=O)c1c(Cl)cc2c(c1Cl)CCN(Cc1ccc(F)cc1)C2)C(=O)O)N[C@@H]1CCc2ccccc21 | 1000 to 5000 nM
O=C(NC[C@H](NC(=O)c1c(Cl)cc2c(c1Cl)CCN(S(=O)(=O)c1ccccc1)C2)C(=O)O)N[C@@H]1CCc2ccccc21 | 1000 to 5000 nM
O=C(NC[C@H](NC(=O)c1c(Cl)ccc(N2CC(c3ccc(Cl)cc3)C2)c1Cl)C(=O)O)N[C@@H]1CCc2ccccc21 | 1000 to 5000 nM
O=C(NC[C@H](NC(=O)c1c(Cl)ccc(N2CC(c3ccccc3)C2)c1Cl)C(=O)O)N[C@@H]1CCc2ccccc21 | < 500 nM

The record that follows has no IC50 shown yet.
Q: Suppose we examine the compound "CN(Cc1ccccc1)C(=O)NC[C@H](NC(=O)c1c(Cl)cc(C(=O)NCc2cccc(O)c2)cc1Cl)C(=O)O" ; what IC50 value has been reported?
A: < 500 nM

* * *

- tested_system: α2β1 (Homo sapiens, UniProt P05556+P17301)
- test_name: α2β1 cell adhesion assay
- Assay type: cell-based
pIC50: −log10 of the molar value.
Measured pIC50, listed per entry.

Answered cases to consult:
CN(Cc1ccccc1)C(=O)NC[C@H](NC(=O)c1c(Cl)cc2c(c1Cl)CCN(CC1CC1)C2=O)C(=O)O | 5.30 to 6.00
CN(Cc1ccccc1)C(=O)NC[C@H](NC(=O)c1c(Cl)cc2c(c1Cl)CCN(Cc1ccccc1)C2=O)C(=O)O | < 5.30
O=C(NC[C@H](NC(=O)c1c(Cl)cc2c(c1Cl)CCN(Cc1ccc(Cl)cc1)C2=O)C(=O)O)N[C@@H]1CCc2ccccc21 | < 5.30
O=C(NC[C@H](NC(=O)c1c(Cl)cc(C(=O)NCc2ccc(Cl)c(Cl)c2)cc1Cl)C(=O)O)N[C@@H]1CCc2ccccc21 | > 6.30

Q: Give its pIC50 value. Item: "N#Cc1cccc(CNC(=O)c2cc(Cl)c(C(=O)N[C@@H](CNC(=O)N[C@@H]3CCc4ccccc43)C(=O)O)c(Cl)c2)c1"
A: > 6.30

Q: Return reported pIC50; argument: "O=C(NC[C@H](NC(=O)c1c(Cl)cc(C(=O)NCc2cccc(F)c2)cc1Cl)C(=O)O)N[C@@H]1CCc2ccccc21"
A: > 6.30

Q: What pIC50 value was documented for this compound, "CCOC(=O)[C@H](CNC(=O)N[C@@H]1CCc2ccccc21)NC(=O)c1c(Cl)cc(C(=O)NCc2cccc(Cl)c2)cc1Cl" ?
A: 5.30 to 6.00

Q: GET /values?readout=pIC50&item= "CCOC(=O)[C@H](CNC(=O)N(C)Cc1ccccc1)NC(=O)c1c(Cl)cc2c(c1Cl)CCN(Cc1cccc(Cl)c1)C2=O"
A: 6.00 to 6.30

* * *

- tested_system: α2β1 (Homo sapiens, UniProt P05556+P17301)
- test_name: α2β1 cell adhesion
- Assay type: cell-based
pIC50: −log10 of the molar value.
property_measured: pIC50

Below are worked cases with known answers.
C[C@@H](NC(=O)c1cc(Cl)c(C(=O)N[C@@H](CNC(=O)N[C@@H]2CCc3ccccc32)C(=O)O)c(Cl)c1)c1ccccc1 [SU15210-0225-01] | > 6.30
CC(C)c1cccc(Nc2ccc(Cl)c(C(=O)N[C@@H](CNC(=O)N[C@@H]3CCc4ccccc43)C(=O)O)c2Cl)c1 [SU15210-0078-01] | 6.00 to 6.30
O=C(NC[C@H](NC(=O)c1c(Cl)cc2c(c1Cl)CCNC2)C(=O)O)N[C@@H]1CCc2ccccc21 [SU15210-0171-01] | < 5.30
O=C(Cc1cccc(Cl)c1)Nc1ccc(Cl)c(C(=O)N[C@@H](CNC(=O)NCc2ccccc2O)C(=O)O)c1Cl [SU15210-0159-01] | > 6.30
O=C(Cc1cccc(Cl)c1)Nc1ccc(Cl)c(C(=O)N[C@@H](CNC(=O)N[C@@H]2CCc3ccccc32)C(=O)O)c1Cl [SU15210-0099-01] | > 6.30

Q: Please look up its pIC50: O=C(NC[C@H](NC(=O)c1c(Cl)cc2c(c1Cl)CCN(C(=O)c1cccc(Cl)c1)C2)C(=O)O)N[C@@H]1CCc2ccccc21 [SU15210-0209-01]
A: > 6.30

Q: Record request: pIC50 value, item O=C(NC[C@H](NC(=O)c1c(Cl)cc(N2CC(c3ccccc3)C2)cc1Cl)C(=O)O)N[C@@H]1CCc2ccccc21 [SU15210-0190-01]
A: < 5.30

* * *

- tested_system: α2β1 (Homo sapiens, UniProt P05556+P17301)
- test_name: α2β1 cell adhesion
- Type: cell-based
pIC50: −log10 of the molar value.
property_measured: pIC50

Examples with their reported pIC50 follow.
O=C(NC[C@H](NC(=O)c1c(Cl)cc(-n2cnc(-c3ccccc3)c2)cc1Cl)C(=O)O)N[C@@H]1CCc2ccccc21 [SU15210-0192-01] | 5.30 to 6.00
CC(C)CCNc1ccc(Cl)c(C(=O)N[C@@H](CNC(=O)N[C@@H]2CCc3ccccc32)C(=O)O)c1Cl [SU15210-0125-01] | 5.30 to 6.00

Q: Reported pIC50, compound Nc1ccc(Cl)c(C(=O)N[C@@H](CNC(=O)N[C@@H]2CCc3ccccc32)C(=O)O)c1Cl [SU15210-0084-01] : ____
A: 6.00 to 6.30

Q: What value of pIC50 has been recorded for this entry: CN(Cc1ccccc1)C(=O)NC[C@H](NC(=O)c1c(Cl)cc(C(=O)NCc2cccc(Cl)c2)cc1Cl)C(=O)O [SU15210-0223-01]
A: > 6.30

Q: Record request: pIC50 value, item O=C(NC[C@H](NC(=O)c1c(Cl)cc2c(c1Cl)CCN(C(=O)c1ccc(Cl)cc1)C2)C(=O)O)N[C@@H]1CCc2ccccc21 [SU15210-0208-01]
A: > 6.30

Q: # input compound: O=C(Cc1ccc(F)c(Cl)c1)Nc1ccc(Cl)c(C(=O)N[C@@H](CNC(=O)N[C@@H]2CCc3ccccc32)C(=O)O)c1Cl [SU15210-0155-01] ; wanted: its pIC50
A: 6.00 to 6.30
